experimental-system: AccR (LysR-type transcriptional regulator, SO_0839) (Shewanella oneidensis, UniProt Q8EIK0)
Sequence (Q8EIK0 entry or part of it): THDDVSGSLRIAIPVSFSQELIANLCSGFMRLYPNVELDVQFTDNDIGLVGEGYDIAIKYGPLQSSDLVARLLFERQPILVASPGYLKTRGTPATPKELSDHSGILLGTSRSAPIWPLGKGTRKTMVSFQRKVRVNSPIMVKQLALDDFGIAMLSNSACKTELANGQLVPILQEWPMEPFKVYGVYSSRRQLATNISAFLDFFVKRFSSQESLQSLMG
measurement-kind: Kd

CC(=O)SCCNC(=O)CCNC(=O)[C@H](O)C(C)(C)COP(=O)(O)OP(=O)(O)OC[C@H]1O[C@@H](n2cnc3c(N)ncnc32)[C@H](O)[C@@H]1OP(=O)(O)O :: 8.4 µM
